For Hepatotoxicity, measured HepSE_hepatitis is reported for the entries below.
Reported Endpoint: HepSE_hepatitis

| Molecule | Reported Endpoint | Reported Value |
| --- | --- | --- |
| Cc1onc(-c2c(Cl)cccc2Cl)c1C(=O)N[C@@H]1C(=O)N2[C@@H]1SC(C)(C)[C@@H]2C(=O)O | HepSE_hepatitis | 1 |
| NS(=O)(=O)c1cc2c(cc1C(F)(F)F)NCNS2(=O)=O [HYDROFLUMETHIAZIDE] | HepSE_hepatitis | 0 |
| CC(=O)NC[C@H]1CN(c2ccc(N3CCOCC3)c(F)c2)C(=O)O1 | HepSE_hepatitis | 0 |
| O=C1CN=C(c2ccccn2)c2cc(Br)ccc2N1 | HepSE_hepatitis | 0 |
| CC[C@@H](C(N)=O)N1CCCC1=O | HepSE_hepatitis | 1 |
| CC(NC(C)(C)C)C(=O)c1cccc(Cl)c1 (stereo unspecified) | HepSE_hepatitis | 1 |

---

Tested on: Hepatotoxicity
Recorded HepSE_jaundice, one value per entry.

| Compound | Target Of Assay | HepSE_jaundice |
| --- | --- | --- |
| OC(CCN1CCCC1)(c1ccccc1)C1CCCCC1 (centres undefined) | Hepatotoxicity | 0 |
| FC(F)(F)C(Cl)Br (centres undefined) | Hepatotoxicity | 0 |
| Clc1ccc2c(c1)C(c1ccccc1)=NCc1nncn1-2 | Hepatotoxicity | 0 |
| Cc1cc(C2CCCCC2)n(O)c(=O)c1 | Hepatotoxicity | 0 |
| COC(=O)C1=C(C)NC(C)=C(C(=O)OC)C1c1ccccc1[N+](=O)[O-] | Hepatotoxicity | 1 |
| CN(C)CCOc1ccc(/C(=C(/CCCl)c2ccccc2)c2ccccc2)cc1 | Hepatotoxicity | 1 |
| CCc1cccc2c3c([nH]c12)C(CC)(CC(=O)O)OCC3 (centres undefined) | Hepatotoxicity | 1 |
| CC[C@@H]([C@H](C)O)n1ncn(-c2ccc(N3CCN(c4ccc(OC[C@@H]5CO[C@@](Cn6cncn6)(c6ccc(F)cc6F)C5)cc4)CC3)cc2)c1=O | Hepatotoxicity | 1 |
| Cc1nc2n(c(=O)c1CCN1CCC(c3noc4cc(F)ccc34)CC1)CCCC2O (centres undefined) | Hepatotoxicity | 0 |
| CN(C)CCCOc1nn(Cc2ccccc2)c2ccccc12 | Hepatotoxicity | 0 |
| CC(C(=O)O)c1cccc(C(=O)c2ccccc2)c1 (centres undefined) | Hepatotoxicity | 1 |
| CN(Cc1ccc(C(C)(C)C)cc1)Cc1cccc2ccccc12 | Hepatotoxicity | 0 |
| Cc1c(OCC(F)(F)F)ccnc1C[S+]([O-])c1nc2ccccc2[nH]1 (centres undefined) | Hepatotoxicity | 1 |
| CC(C)(C)NCC(O)COc1cccc2c1CCC(=O)N2 (centres undefined) | Hepatotoxicity | 0 |
| CC(=O)CC(c1ccccc1)c1c(O)c2ccccc2oc1=O (centres undefined) | Hepatotoxicity | 1 |
| Cc1cn([C@H]2C[C@H](N=[N+]=[N-])[C@@H](CO)O2)c(=O)[nH]c1=O | Hepatotoxicity | 1 |
| Nc1nc(Cl)nc2c1ncn2[C@H]1C[C@H](O)[C@@H](CO)O1 | Hepatotoxicity | 0 |
| CC(C)(C)C(=O)OCOP(=O)(COCCn1cnc2c(N)ncnc21)OCOC(=O)C(C)(C)C | Hepatotoxicity | 0 |
| CCC(=O)O[C@]1(C(=O)CCl)[C@@H](C)C[C@H]2[C@@H]3C[C@H](F)C4=CC(=O)C=C[C@]4(C)[C@@]3(F)[C@@H](O)C[C@@]21C [HALOBETASOL PROPIONATE] | Hepatotoxicity | 0 |
| CNC(=O)c1cc(Oc2ccc(NC(=O)Nc3ccc(Cl)c(C(F)(F)F)c3)cc2)ccn1 | Hepatotoxicity | 1 |
| Cc1ccc(S(=O)(=O)NC(=O)NN2CC3CCCC3C2)cc1 (centres undefined) [GLICLAZIDE] | Hepatotoxicity | 1 |
| O=C(O)CCc1nc(-c2ccccc2)c(-c2ccccc2)o1 | Hepatotoxicity | 1 |
| CC(=O)OCC(=O)[C@@]12OC(C)(C)O[C@@H]1C[C@H]1[C@@H]3C[C@H](F)C4=CC(=O)C=C[C@]4(C)[C@@]3(F)[C@@H](O)C[C@@]12C [FLUOCINONIDE] | Hepatotoxicity | 0 |
| CC1CNc2c(cccc2S(=O)(=O)N[C@@H](CCCNC(=N)N)C(=O)N2CC[C@@H](C)C[C@@H]2C(=O)O)C1 (some centres undefined) | Hepatotoxicity | 0 |
| CO/N=C(\C(=O)N[C@@H]1C(=O)N2C(C(=O)O)=C(COC(C)=O)CS[C@H]12)c1csc(N)n1 | Hepatotoxicity | 1 |
| CO[C@H]1C[C@@H]2CC[C@@H](C)[C@@](O)(O2)C(=O)C(=O)N2CCCC[C@H]2C(=O)O[C@H]([C@H](C)C[C@@H]2CC[C@@H](O)[C@H](OC)C2)CC(=O)[C@H](C)/C=C(\C)[C@@H](O)[C@@H](OC)C(=O)[C@H](C)C[C@H](C)/C=C/C=C/C=C/1C | Hepatotoxicity | 0 |
| CCOC(=O)CC(SP(=S)(OC)OC)C(=O)OCC (centres undefined) | Hepatotoxicity | 0 |
| CCOc1nc2cccc(C(=O)O)c2n1Cc1ccc(-c2ccccc2-c2nnn[nH]2)cc1 | Hepatotoxicity | 0 |
| [Li] | Hepatotoxicity | 0 |

// provenance: ChEMBL document CHEMBL1909294
